assay_target: SpHof1-2
run_description: SPOT peptide array binding signal intensity (averaged, normalized) (arbitrary units (background-subtracted, floor 0; scale differs between SH3 domains)); higher = stronger binding of the SH3 domain to the peptide
Hi there, I'd appreciate the recorded SPOT peptide array binding signal intensity for every entry that follows.

Which measured SPOT peptide array binding signal intensity value corresponds to `KWVRRPKLMTPLTFS` ?
17

I have this binder here, `IRMPSNPALPKKLLN` , and I need its recorded SPOT peptide array binding signal intensity.
30

Query (binder): `RKRRTHLRLPLIRSN` ; field requested: SPOT peptide array binding signal intensity
9

Look up SPOT peptide array binding signal intensity for this binder: `KIRRSSLMIPNPQQF`
24

// SPOT peptide array binding signal intensity lookup, key: `GKLKHIPRRPYEIER`
1

State the recorded SPOT peptide array binding signal intensity for this entry: `LKQRFFLMFPKSIIW`
36.5

Please report the recorded SPOT peptide array binding signal intensity for `QGYPRQPQRPQRYHP` .
≤ 0
